Where do the numbers come from? From ChEMBL document CHEMBL1201862.

Listing: GI50 of selected molecules
# Test system: NCI-H522
# protocol.summary: NCI tumour cell line growth inhibition, 48 h
Calls of active or inactive are those of the source. No stated cut-off is given here; in the data, active = GI50 up to about 1.1 µM and inactive = higher.
readout.kind: GI50

* CC(C)[C@@H]1CC[C@@H](C)C[C@H]1OC(=O)/C=C1\C(C(=O)O[C@@H]2C[C@H](C)CC[C@H]2C(C)C)[C@H]2C=C[C@@H]1O2 (stereo not given in full) | 22.5 µM (inactive)
* CC(=O)N1CC(C)(C)c2c1cc(C)c(O)c2C | > 100 µM (inactive)
* COC(=O)C1CCC(=O)N1CN(C(C)=O)c1cccc(O)c1 (stereo not given) | > 100 µM (inactive)
* O=C1CCc2nc3ncccc3cc2C1 | 22.2 µM (inactive)
* Nc1ccc2c(c1)N(C(=O)c1cc3cc(NC(=O)c4cc5ccccc5o4)ccc3[nH]1)CC2CCl (stereo not given) | < 0.01 µM (active)
* Cc1cc(OC(=O)c2c(C)cc(OC(=O)c3c(C)cc(O)cc3O)cc2O)cc(O)c1C(=O)O [GYROPHORIC ACID] | > 100 µM (inactive)
* COC1=C2C[C@](OC)(C#CC=CC#CC2O)CC1(C)C (stereo not given in full) | > 100 µM (inactive)
* CNC(=O)C(NC(=O)[C@H](CC(C)C)NC(=O)[C@@H](S)CCN1C(=O)N(C)C(C)(C)C1=O)C(C)(C)C (stereo not given in full) | > 100 µM (inactive)
* O=C1O[C@@H](c2ccccc2)C[C@@H]1CN1CCOCC1 | > 100 µM (inactive)
* O=C1NC(O)n2c(=O)[nH]c(=O)n21 (stereo not given) | > 100 µM (inactive)
* CC(=O)OCC1OC(N2C(c3ccccc3)=CC(c3ccco3)C(C#N)=C2S)C(OC(C)=O)C(OC(C)=O)C1OC(C)=O (stereo not given) | 16.6 µM (inactive)
* CN(C)NC(=S)NC12CC3CC(CC(C3)C1)C2 | > 100 µM (inactive)
* CC1(C)CC23CC(C)(C)c4cccc(c42)OCc2ccc4ccc5ccc(nc5c4n2)COc2cccc1c23 | > 50 µM (inactive)
* COC(=O)[C@H](C)N1C(=O)N[C@@H](C(C)C)C1=O | > 100 µM (inactive)
* NC(=O)c1ncn2c(=O)n(CCCl)nnc12 [MITOZOLOMIDE] | 131 µM (inactive)
* O=[N+]([O-])c1ccc(-c2nc3ccccc3o2)cc1 | > 100 µM (inactive)
* Cc1cc(NS(=O)(=O)c2ccc(Nc3c4ccccc4nc4c(C(=O)NCCN(C)C)ccc(Cl)c34)cc2)no1 | 0.54 µM (active)
* Nc1nc(NC2C=C(CO)C(O)C2O)c([N+](=O)[O-])c(=O)[nH]1 (stereo not given) | > 100 µM (inactive)
* Clc1cccc(Cl)c1C(Nc1nncs1)Nc1nncs1 | 22.3 µM (inactive)
* Cc1cc2c(cc1Cl)SSc1cc(Cl)c(C)cc1S(=O)(=O)Nc1nc(N)nn1C(O)n1nc(N)nc1NS2(=O)=O | > 10 µM (inactive)
